// data source = the supplement of paper PMC10883282

The following compounds are shown together with reported relative viability values.
system: SW684; experiment: relative viability vs DMSO control (72 h) (fraction); higher = more viable cells; settings: 0.00152 µM
Quantity: relative viability

Compound	Quantity	Recorded measurement
FC(F)(F)c1ccc(CNc2ccc(Cc3c[nH]c4ncc(Cl)cc34)cn2)cn1 [Pexidartinib]	relative viability	1.19
CCCS(=O)(=O)N[C@H]1C[C@@H](N(C)c2ncnc3[nH]ccc23)C1 [Abrocitinib]	relative viability	1.12
COc1cc2c(Oc3ccc4[nH]c(C)cc4c3F)ccnc2cc1OCC1(N)CC1 [Anlotinib]	relative viability	1.11
COc1cc(OC)cc(N(CCNC(C)C)c2ccc3ncc(-c4cnn(C)c4)nc3c2)c1 [Erdafitinib]	relative viability	1.13

* * *

test system: HS729; experiment: relative viability vs DMSO control (72 h) (fraction); higher = more viable cells; settings: 0.00152 µM
Reported relative viability values follow for various compounds

Structure string	relative viability
CCCS(=O)(=O)N[C@H]1C[C@@H](N(C)c2ncnc3[nH]ccc23)C1	0.937
CO[C@@H]1[C@H](N(C)C(=O)c2ccccc2)C[C@H]2O[C@]1(C)n1c3ccccc3c3c4c(c5c6ccccc6n2c5c31)C(=O)NC4	0.914
COc1cc2nccc(Oc3ccc(NC(=O)NC4CC4)c(Cl)c3)c2cc1C(N)=O	1.04
Cc1cn(-c2cc(NC(=O)c3ccc(C)c(Nc4nccc(-c5cnccn5)n4)c3)cc(C(F)(F)F)c2)cn1	1.02
Cc1nc(Nc2ncc(C(=O)Nc3c(C)cccc3Cl)s2)cc(N2CCN(CCO)CC2)n1	0.95
C[C@@H](Oc1cc(-c2cnn(C3CCNCC3)c2)cnc1N)c1c(Cl)ccc(F)c1Cl	0.971
Cc1ccc(C(=O)OCc2ccc([C@@H](CN)C(=O)Nc3ccc4cnccc4c3)cc2)c(C)c1	0.899

* * *

tested on: SW1353; experiment: relative viability vs DMSO control (72 h) (fraction); higher = more viable cells; conditions: 0.04115 µM

Structure string	Experimental target	relative viability
NC(=O)c1cnc2[nH]ccc2c1N[C@@H]1[C@@H]2CC3C[C@H]1C[C@@](O)(C3)C2	SW1353	1.07
Cc1c(F)cc(C(=O)NC2CC2)cc1-c1ccc(C(=O)NCC(C)(C)C)cn1	SW1353	1.08
Cc1ccc(C(=O)OCc2ccc([C@@H](CN)C(=O)Nc3ccc4cnccc4c3)cc2)c(C)c1	SW1353	0.946
C1=N/C2=N/c3ccc(OCCN4CCCC4)c(c3)COC/C=C/COCc3cccc(c3)C(=C1)N2	SW1353	0.981
COc1cc2ncnc(Nc3ccc(F)c(Cl)c3)c2cc1NC(=O)/C=C/CN1CCCCC1	SW1353	0.884
COc1cc2ncnc(Nc3cccc(Cl)c3F)c2cc1OC(=O)N1CCN(C)C[C@H]1C	SW1353	0.983
C[C@H]1Oc2cc(cnc2N)-c2c(nn(C)c2C#N)CN(C)C(=O)c2ccc(F)cc21	SW1353	1
COc1cc2nccc(Oc3ccc(NC(=O)NC4CC4)c(Cl)c3)c2cc1C(N)=O	SW1353	0.943

* * *

test system: RD-ES; assay: relative viability vs DMSO control (72 h) (fraction); higher = more viable cells; settings: 3.333 µM
In this section we review reported relative viability values for a set of molecules.
Quantity: relative viability

Structure string	Experimental target	Recorded measurement
Cc1cc(Nc2ncc(Cl)c(Nc3ccccc3S(=O)(=O)C(C)C)n2)c(OC(C)C)cc1C1CCNCC1	RD-ES	0.304
CN(C)C[C@@H]1CCn2cc(c3ccccc32)C2=C(C(=O)NC2=O)c2cn(c3ccccc23)CCO1	RD-ES	0.862
Cc1nc(Nc2ncc(C(=O)Nc3c(C)cccc3Cl)s2)cc(N2CCN(CCO)CC2)n1	RD-ES	0.759
FC(F)(F)c1ccc(CNc2ccc(Cc3c[nH]c4ncc(Cl)cc34)cn2)cn1	RD-ES	0.959
CCCCCCCCCCCCCCCCCCOP(=O)([O-])OC1CC[N+](C)(C)CC1	RD-ES	0.983
CCN(CCCOc1ccc2c(Nc3cc(CC(=O)Nc4cccc(F)c4)[nH]n3)ncnc2c1)CCOP(=O)(O)O	RD-ES	0.117
Cc1c(F)cc(C(=O)NC2CC2)cc1-c1ccc(C(=O)NCC(C)(C)C)cn1	RD-ES	0.892
Cc1cn(-c2cc(NC(=O)c3ccc(C)c(Nc4nccc(-c5cccnc5)n4)c3)cc(C(F)(F)F)c2)cn1	RD-ES	0.702

* * *

system: MES-SA; assay: relative viability vs DMSO control (72 h) (fraction); higher = more viable cells; settings: 0.01372 µM
Values of relative viability strictly less than 0.9 map to true, and values of at least 0.9 map to false.

Structure string	Experimental target	Category label
COc1cc2c(Oc3ccc4[nH]c(C)cc4c3F)ccnc2cc1OCC1(N)CC1	MES-SA	false
CCN(CCCOc1ccc2c(Nc3cc(CC(=O)Nc4cccc(F)c4)[nH]n3)ncnc2c1)CCOP(=O)(O)O	MES-SA	true
C[C@@H](Oc1cc(-c2cnn(C3CCNCC3)c2)cnc1N)c1c(Cl)ccc(F)c1Cl	MES-SA	false
Cc1c(F)cc(C(=O)NC2CC2)cc1-c1ccc(C(=O)NCC(C)(C)C)cn1	MES-SA	false

* * *

test system: KHOS-NP; assay: relative viability vs DMSO control (72 h) (fraction); higher = more viable cells; conditions: 0.3704 µM
Quantity: relative viability

Structure string	Recorded measurement
NC(=O)c1cccc2cn(-c3ccc([C@@H]4CCCNC4)cc3)nc12	1.08
COc1cc2ncnc(Nc3cccc(Cl)c3F)c2cc1OC(=O)N1CCN(C)C[C@H]1C	1.04
CCN(c1cc(-c2ccc(CN3CCOCC3)cc2)cc(C(=O)NCc2c(C)cc(C)[nH]c2=O)c1C)C1CCOCC1	0.997
Cc1c(F)cc(C(=O)NC2CC2)cc1-c1ccc(C(=O)NCC(C)(C)C)cn1	1.1
C#Cc1cccc(Nc2ncnc3cc(OCCOC)c(OCCOC)cc23)c1	1.1

* * *

test system: SYO-1; assay: relative viability vs DMSO control (72 h) (fraction); higher = more viable cells; conditions: 0.01372 µM
Each entry below carries its recorded relative viability.
Quantity: relative viability

Molecule	Experimental target	Recorded measurement
C1=N/C2=N/c3ccc(OCCN4CCCC4)c(c3)COC/C=C/COCc3cccc(c3)C(=C1)N2	SYO-1	1.01
Cc1ccc(C(=O)OCc2ccc([C@@H](CN)C(=O)Nc3ccc4cnccc4c3)cc2)c(C)c1	SYO-1	0.923
CNC(=O)c1cc(Oc2ccc(NC(=O)Nc3ccc(Cl)c(C(F)(F)F)c3)cc2)ccn1	SYO-1	0.948
Cc1ccc(NC(=O)c2ccc(CN3CCN(C)CC3)cc2)cc1Nc1nccc(-c2cccnc2)n1	SYO-1	0.948
CC[C@@H]1C(=O)N(C)c2cnc(Nc3ccc(C(=O)N[C@H]4CC[C@H](N5CCN(CC6CC6)CC5)CC4)cc3OC)nc2N1C(C)C	SYO-1	0.549
CO[C@@H]1[C@H](N(C)C(=O)c2ccccc2)C[C@H]2O[C@]1(C)n1c3ccccc3c3c4c(c5c6ccccc6n2c5c31)C(=O)NC4	SYO-1	0.833
COc1cc2nccc(Oc3ccc(NC(=O)C4(C(=O)Nc5ccc(F)cc5)CC4)cc3)c2cc1OC [Cabozantinib]	SYO-1	0.915
COc1cc2ncnc(Nc3ccc(F)c(Cl)c3)c2cc1NC(=O)/C=C/CN1CCCCC1	SYO-1	1
Cc1nc(Nc2ncc(C(=O)Nc3c(C)cccc3Cl)s2)cc(N2CCN(CCO)CC2)n1	SYO-1	0.779
CCCCCCCCCCCCCCCCCCOP(=O)([O-])OC1CC[N+](C)(C)CC1	SYO-1	0.977
Cc1c(F)cc(C(=O)NC2CC2)cc1-c1ccc(C(=O)NCC(C)(C)C)cn1	SYO-1	0.954

* * *

tested on: KHOS-240S; experiment: relative viability vs DMSO control (72 h) (fraction); higher = more viable cells; conditions: 0.00051 µM
Measured relative viability accompanies every entry in the list below.

Molecule	Experimental target	relative viability
Cc1cn(-c2cc(NC(=O)c3ccc(C)c(Nc4nccc(-c5cccnc5)n4)c3)cc(C(F)(F)F)c2)cn1 [Nilotinib]	KHOS-240S	1.02
C[C@@H]1COC(Nc2ccc3ncnc(Nc4ccc(OCc5nccs5)c(Cl)c4)c3c2)=N1 [Varlitinib]	KHOS-240S	1.03
CC[C@@H]1C(=O)N(C)c2cnc(Nc3ccc(C(=O)N[C@H]4CC[C@H](N5CCN(CC6CC6)CC5)CC4)cc3OC)nc2N1C(C)C [Volasertib]	KHOS-240S	1.05
FC(F)(F)c1ccc(CNc2ccc(Cc3c[nH]c4ncc(Cl)cc34)cn2)cn1 [Pexidartinib]	KHOS-240S	1.07

* * *

tested on: VA-ES-BJ; experiment: standardised AUC of viability dose-response curve (72 h) (fraction (0-1)); higher = less growth inhibition (more resistant)
In this section we review reported standardised AUC values for a set of molecules.
Quantity: standardised AUC

Structure string	Experimental target	Recorded measurement
Cc1ccc(NC(=O)c2ccc(CN3CCN(C)CC3)cc2)cc1Nc1nccc(-c2cccnc2)n1	VA-ES-BJ	0.987
C=CC(=O)Nc1cccc(Nc2nc(Nc3ccc(N4CCN(C(C)=O)CC4)cc3OC)ncc2C(F)(F)F)c1	VA-ES-BJ	0.921
COc1cc2ncnc(Nc3ccc(F)c(Cl)c3)c2cc1NC(=O)/C=C/CN1CCCCC1	VA-ES-BJ	0.893
COc1cc2ncnc(Nc3cccc(Cl)c3F)c2cc1OC(=O)N1CCN(C)C[C@H]1C	VA-ES-BJ	0.955
CC[C@@H]1C(=O)N(C)c2cnc(Nc3ccc(C(=O)N[C@H]4CC[C@H](N5CCN(CC6CC6)CC5)CC4)cc3OC)nc2N1C(C)C	VA-ES-BJ	0.531
CO[C@H]1C[C@@H]2CC[C@@H](C)[C@@](O)(O2)C(=O)C(=O)N2CCCC[C@H]2C(=O)O[C@H]([C@H](C)C[C@@H]2CC[C@@H](O)[C@H](OC)C2)CC(=O)[C@H](C)/C=C(\C)[C@@H](O)[C@@H](OC)C(=O)[C@H](C)C[C@H](C)/C=C/C=C/C=C/1C	VA-ES-BJ	0.589
